// data source = patent US20260242458A1

# Lookup of reported EC50 (read off the curve) keyed by entry
tested target: T1, recombinant cynomolgus IL-25 protein (cynomolgus monkey, UniProt Q9H293 33-177 (human entry), limits assumed)
T1 construct: Bought (Sino Biological Inc, customized order); also called cyno IL-25
T1 chain: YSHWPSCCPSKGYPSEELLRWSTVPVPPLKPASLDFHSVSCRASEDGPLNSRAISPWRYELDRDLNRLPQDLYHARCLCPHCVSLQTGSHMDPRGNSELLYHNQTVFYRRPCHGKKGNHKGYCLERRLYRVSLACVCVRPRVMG
assay text: ELISA: recombinant cynomolgus IL-25 coated on the plate, detection with goat-anti-human Kappa Light Chain antibody HRP, ABTS, OD 405

See these solved cases before continuing.
binder	experimental result
IL25Ab3 (antibody, V domains shown, detected with anti-human IgG or anti-human kappa reagents; also called anti-IL-25Ab3; mouse origin of anti-IL-25 specific antibody) VH: EVQLQQSGPELVKPGGSVRISCKASGYSFTGYTMNWVKQSHGKNLEWIGLINPDNGGTSHKQRFMGKATLTVDKSSSTAYMELLSLTSEDSAVYYCAREGYYGPSPFHHYAMDYWGQGTSVTVSS VL: DIQMTQTTSSLSASLGDRVTISCSASQDISNYLNWYQQKPDGTIKLLIYYTSTLHSGVPSRFSGSGSGTDYSLTISNLEPEDIATYYCQQYSKLPYTFGGGTKLEIK	~0.1 nM
IL25Ab4 (antibody, V domains shown) VH: QVTLKESGPGILQPSQTLSLTCSFSGFSLSTSGMGVSWIRQPSGKGLEWLAHIYWDDAKFYNPSLKSRVTISKDTSRNQVFLRITSVDTADIATYYCARRGYDNYGGFVDWGQGTLVTVSS VL: ENVLIQSPAIMSASLGEKVTMSCRASSSVNYMYWYQQKSDAPPKLWIYYTSNLAPGVPGRFSGSGSGNSYSLTISSMEGEDAATYYCQQFTSYPYMYTFGGGTKLEIK	~0.1 nM

Now examine the next entry.
[in] Returns the measured EC50 (read off the curve) for the input binder. Input: IL25Ab2 (antibody, V domains shown) VH: QVTLKESGPGILQPSQTLSLTCSFSGFSLSTSGMGVGWIRQPSGKGLEWLAHIWWDDVKQYNPALQSRLTISKDTSSSQVFLKIASVDIADIATYYCARIGPVHHGFPYWGQGALVTVSS VL: QIVLTQSPAIMSAFPGEKVTMSCSASSSVNYMYWHQQKPGSSPRLLIYDTSNLASGVPVRFSGSGSGTSYSLTISRMEAEDAATYYCQQWTSYPPMYTFGGGTKLEIK
[out] ~0.1 nM
